- System: primary human hepatic stellate cells (donor 1)
- procedure_text: scaled lipid accumulation score (0 = DMSO-like, 1 = nortriptyline-like); higher = stronger HSC inactivation (lipid re-accumulation), active = hit call of the paper
- condition_info: library stock concentration: 10 mM; 48 h
Structures can show the parent of a compound that is named as a salt. Hit rate of the full screen: of about 5,800 compounds, about 620 (11%) showed activity.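 The calls were made as follows: active = score above a cut-off or among the top three wells of a plate; in these data no inactive exceeds 0.85.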 What follows is part of a selection rich in actives, with near analogues and random picks from the rest.
Outcome field: choose from active, inactive

Query: Per the assay record, what outcome was assigned to N[C@@H](Cc1c[nH]cn1)C(=O)O [L-Histidine hydrochloride] ?
Result: inactive

Query: Try OCC(O)C(O)CO (stereo unspecified) [Erythritol] next.
Result: inactive

----------
- Test system: primary human hepatic stellate cells (donor 1)
- procedure_text: scaled lipid accumulation score (0 = DMSO-like, 1 = nortriptyline-like); higher = stronger HSC inactivation (lipid re-accumulation), active = hit call of the paper
- condition_info: library stock concentration: 1 mM; 48 h
The campaign covered roughly 5,800 compounds. About 620 (11%) showed activity. What follows is part of a selection rich in actives, with near analogues and random picks from the rest.
Recorded scaled lipid accumulation score, one value per entry.

For orientation, consider the following solved cases.
compound: CCCCC[C@H](O)/C=C/[C@H]1[C@H](O)CC(=O)[C@@H]1CCCCCCCCC(=O)O [1a,1b-dihomo Prostaglandin E1]
scaled lipid accumulation score: ≤ 0 (inactive)
--
compound: CC(C)OC(=O)CCC/C=C\C[C@@H]1[C@@H](/C=C/[C@H](O)C2Cc3ccccc3C2)[C@@H](F)C[C@@H]1O
scaled lipid accumulation score: ≤ 0 (inactive)
--
compound: CCCCCC(O)C=CC1C(O)CC(=O)C1CCCCCCC(=O)O (centres undefined) [8-iso Prostaglandin E1]
scaled lipid accumulation score: ≤ 0 (inactive)
--
compound: CO[C@H]1C[C@@H]2CC[C@@H](C)[C@@](O)(O2)C(=O)C(=O)N2CCCC[C@H]2C(=O)O[C@H]([C@H](C)C[C@@H]2CC[C@@H](O)[C@H](OC)C2)CC(=O)[C@H](C)/C=C(\C)[C@@H](O)[C@@H](OC)C(=O)[C@H](C)C[C@H](C)/C=C/C=C/C=C/1C
scaled lipid accumulation score: ≤ 0 (inactive)
--
compound: O=C(CCc1ccc(O)c(O)c1)N[C@@H](CC(=O)OCc1ccccc1)C(=O)OCc1ccccc1
scaled lipid accumulation score: ≤ 0 (inactive)

Query: Suppose we examine the compound CCCCC(C)CC(O)/C=C/C1C(O)CC(O)C1CCCCCCC(=O)O (centres undefined) ; what scaled lipid accumulation score value has been reported?
Result: ≤ 0 (inactive)

Query: Try CCCCCCCCCCCCCCCCCC=CC(=O)O [.DELTA.2-cis Eicosenoic Acid] next.
Result: 0.011 (inactive)

Query: Try C[C@H](C(=O)O)c1ccc(-c2ccccc2)c(F)c1 [(S)-Flurbiprofen] next.
Result: 0.003 (inactive)

Query: Try N=C(NO)NCC[C@H](N)C(=O)O next.
Result: ≤ 0 (inactive)

Query: Try CC(C)=CCC/C(C)=C/CC/C(C)=C/CSc1ccccc1C(N)=O [Farnesyl Thiosalicylic Acid Amide] next.
Result: ≤ 0 (inactive)

Query: Try Cc1c(C)c2c(c(C)c1O)CCC(C)(CCCC(C)C(=O)O)O2 (centres undefined) next.
Result: ≤ 0 (inactive)

Query: Try CCCCCCCCCCCCCC(=O)OCC next.
Result: 0.028 (inactive)

Query: Try CCCCCCCCCCCCC(=O)NC1CCOC1=O (centres undefined) next.
Result: ≤ 0 (inactive)

Query: Try CCCCCC/C=C\CCCC(=O)CC(=O)N[C@H]1CCOC1=O [N-3-oxo-tetradec-7(Z)-enoyl-L-Homoserine lactone] next.
Result: ≤ 0 (inactive)

Query: Try CCCCC/C=C\C/C=C\CC/C=C\CCCC(=O)OCC next.
Result: ≤ 0 (inactive)

Query: Try COc1ccc2c(c1)c(CC(=O)NCCc1ccccc1)c(C)n2C(=O)c1ccc(Cl)cc1 [N-(2-phenylethyl)-Indomethacin amide] next.
Result: 0.049 (inactive)

Query: Try CCCCC(C)(C)[C@H](O)/C=C/[C@@H]1[C@@H](C/C=C\CCCC(=O)O)[C@H](O)C[C@H]1O next.
Result: ≤ 0 (inactive)

Query: Try CC(C)CCCCCCC/C=C\C(=O)O [cis-.DELTA.2-11-methyl-Dodecenoic Acid] next.
Result: 0.068 (inactive)

Query: Try CCCCCC(O)C=CC1C(O)CC(=O)C1CCCCCCC(=O)O [15(R)-Prostaglandin E1] next.
Result: ≤ 0 (inactive)

Query: Try CC(C)=CCC/C(C)=C/CC/C(C)=C/CSCC(=O)O next.
Result: ≤ -0.021 (inactive)

Query: Try CCCCCCCCCCCCC/C=C/[C@@H](O)[C@H](CO)NC(=O)CCCCCCCCCCCCCCC [C16 Ceramide] next.
Result: ≤ -0.021 (inactive)

Query: Try CCCCC/C=C\C=C\CCCCCCCCC(=O)O [10(E),12(Z)-Conjugated Linoleic Acid] next.
Result: 0.069 (inactive)

Query: Try CCCCC[C@H](O)/C=C/[C@@H]1[C@@H](C/C=C\CCCC(=O)N(C)C)[C@@H](O)C[C@H]1O [Prostaglandin F2.alpha. dimethyl amide] next.
Result: ≤ 0 (inactive)

Query: Try O=C(O)CCC/C=C\C[C@H]1[C@@H](O)CC(=O)[C@@H]1/C=C/[C@@H](O)COc1cccc(C(F)(F)F)c1 next.
Result: ≤ 0 (inactive)
